FYI, the data here is from the Deep4Chem optical property database.

assay notes: solvent given as SMILES
run conditions: in CCOC(C)=O
# note: boundary value 500 nm maps to 0 (no); emission maximum below it maps to 1 (yes)

Just wondering, is emission maximum of `CCCCCCOc1ccc2oc3c(c2c1)=CC1=C(c2ccccc2C)c2cc4c5cc(OCCCCCC)ccc5oc4n2[B-](F)(F)[N+]=31` below 500 nm?
0 (no)

Just wondering, is emission maximum of `CCOC(=O)/C(C#N)=C\c1cn(-c2ccccc2)nc1-c1ccccc1` below 500 nm?
1 (yes)

Just wondering, is emission maximum of `CN1C(=O)/C(=C/c2ccncc2)N=C1/C=C/c1ccncc1` below 500 nm?
0 (no)

Just wondering, is emission maximum of `COc1ccc(-c2nc3c(c4c2-c2ccccc2CC4)-c2ccccc2CC3)cc1` below 500 nm?
1 (yes)

Just wondering, is emission maximum of `CCCCn1c2ccc(C#N)cc2c2cc(C#N)cc(-c3ccc(N(c4ccccc4)c4ccccc4)cc3)c21` below 500 nm?
1 (yes)

Just wondering, is emission maximum of `COC(=O)C[C@H](Cc1c[nH]c2ccccc12)NC(=O)[C@H](CC(=O)N[C@@H](CC1=CCc2ccccc21)C(=O)OC)NC(=O)[C@H](Cc1c[nH]c2ccccc12)NC(=O)OC(C)(C)C` below 500 nm?
1 (yes)

Just wondering, is emission maximum of `C#CCNC1=C2C=C(c3cc4n(c3)[B-](F)(F)[N+]3=CC=CC3=C4c3c(C)cc(C)cc3C)C(C)=[N+]2[B-](F)(F)n2c(C)ccc21` below 500 nm?
0 (no)

----------
Record form. Attribute: emission maximum. Fill in for each entry.
assay notes: solvent given as SMILES
run conditions: in ClCCl
Please reply with the bare figure in nm and do not write the unit itself.

Reported emission maximum ( `CCn1c2ccccc2c2c3nsnc3c3c4ccccc4n(CC)c3c21` ) = 497

Reported emission maximum ( `N#C/C(=C/Nc1ccc(C#N)cc1)c1nc(-c2ccccc2)cs1` ) = 437

Reported emission maximum ( c1ccc(N2N=C(c3ccc4ccc5cccc6ccc3c4c56)CC2c2ccc3ccc4cccc5ccc2c3c45)cc1 (configuration not stated) ) = 508

Reported emission maximum ( `CN(C)c1ccc(N2c3sc4ccccc4c3Sc3c2sc2ccccc32)cc1` ) = 556

Reported emission maximum ( `CCCCCN1c2ccccc2Sc2cc(/C=C/c3ccc(/C=C(\C#N)C(=O)O)s3)ccc21` ) = 704

Reported emission maximum ( `CCCCn1c(-c2ccc(-c3nnc(-c4ccccc4)o3)cc2)nc2c3ccccc3c3ccccc3c21` ) = 446

Reported emission maximum ( `C[Si]1(C)c2cc(-c3cccs3)ccc2C=Cc2ccc(-c3cccs3)cc21` ) = 415

Reported emission maximum ( `CC1=C(C2=C(C)C(C)=[N+]3C2=Cc2cc(C)c(C)n2[B-]3(F)F)C2=Cc3cc(C)c(C)n3[B-](F)(F)[N+]2=C1C` ) = 598

Reported emission maximum ( `CCN(CC)c1ccc2cc(-c3nc4cc(C(=O)Nc5ccc(C)cc5[N+](=O)[O-])ccc4o3)c(=O)oc2c1` ) = 496

Reported emission maximum ( `CCOC(=O)/C(C#N)=C\c1cn(-c2ccccc2)nc1-c1ccccc1` ) = 428

Reported emission maximum ( `COc1ccc2c(c1)c1c(OC)c3ccccc3c(OC)c1n2C` ) = 443

Reported emission maximum ( `COc1ccc(-c2cc3c4c(c2)CCc2cc(-c5ccc(OC)cc5)cc(c2-4)CC3)cc1` ) = 391.08

Reported emission maximum ( `CC(=O)Nc1ccc(S(=O)(=O)O)c(/N=N/c2c(O)c3ccccc3n(C)c2=O)c1` ) = 528

Reported emission maximum ( `COc1cc(OC)c2cc(C#N)c(=N)oc2c1` ) = 428

Reported emission maximum ( `COc1ccc(-c2ccc3c(c2)C=Cc2cc(-c4ccc(OC)cc4)ccc2[Si]3(C)C)cc1` ) = 391

Reported emission maximum ( `CCN(CC)c1ccc(/N=N/c2nc3ccc(OC)cc3s2)cc1` ) = 574

Reported emission maximum ( `Cc1cc(C)c(C)c(-c2cc(-c3c(C)c(C)cc(C)c3C)c3ccc4c(-c5c(C)c(C)cc(C)c5C)cc(-c5c(C)c(C)cc(C)c5C)c5ccc2c3c54)c1C` ) = 412

Reported emission maximum ( `Cc1cccc(-c2[nH]c(=O)n3c2-c2ccccc2C3=O)c1O` ) = 473

Reported emission maximum ( `c1ccc(B2Nc3cc4c(cc3-c3sc5ccccc5c32)NB(c2ccccc2)c2c-4sc3ccccc23)cc1` ) = 418

Reported emission maximum ( `CN(C)c1ccc(/C=C2\CC/C(=C\c3ccc(C#N)cc3)C2=O)cc1` ) = 643

Reported emission maximum ( `CC(C)(C)c1ccc2c(c1)c1cc(C(C)(C)C)ccc1n2-c1ccccc1-c1nc(-c2ccccc2-n2c3ccc(C(C)(C)C)cc3c3cc(C(C)(C)C)ccc32)nc(-c2ccccc2P(=O)(c2ccccc2)c2ccccc2)n1` ) = 529.29

Reported emission maximum ( CCCCC(CC)COc1cc(OCC(CC)CCCC)c2c#cc3ccc4c(c3)c3cc(c#cc5cc(c#cc6ccc7c(c6)c6cc(c#cc1c2)ccc6n7CC(CC)CCCC)c(C(CCCC)OCCC)cc5C(CCCC)OCCC)ccc3n4CC(CC)CCCC (configuration not stated) ) = 388

Reported emission maximum ( `COc1ccc(-c2cc3c(s2)c(C(=O)c2ccccc2)cc(=O)n3Cc2ccccc2)cc1` ) = 547

Reported emission maximum ( `COC(=O)c1c(-c2cc3ccccc3oc2=O)nn(-c2cccc(Cl)c2)c1C(=O)OC` ) = 418

Reported emission maximum ( `CCCCn1c(-c2ccc(-c3nnc(-c4cccs4)o3)cc2)nc(-c2ccccc2)c1-c1ccccc1` ) = 444

Reported emission maximum ( `CCCCC1(CCCC)c2cc(C#Cc3ccc4ccc5cccc6ccc3c4c56)ccc2-c2ccc(N(c3ccccc3)c3ccccc3)cc21` ) = 516

Reported emission maximum ( `Cc1ccc2c(c1)B(c1c(C(C)C)cc(C(C)C)cc1C(C)C)c1cc(C)cc3c1N2c1ccc(C)cc1B3c1c(C(C)C)cc(C(C)C)cc1C(C)C` ) = 482

Reported emission maximum ( `CC(C)(C)OC(=O)CN1CCN(c2ccc3c(-c4ccc(I)cc4)c4ccc(=[N+]5CCN(CC(=O)OC(C)(C)C)CC5)cc-4oc3c2)CC1` ) = 586

Reported emission maximum ( `Cc1ccc(-n2c(-c3ccc(N(c4ccc(-c5ccc(N(c6ccc(-c7nc8c9ccccc9c9ccccc9c8n7-c7ccc(C)cc7)cc6)c6ccc(-c7nc8c9ccccc9c9ccccc9c8n7-c7ccc(C)cc7)cc6)cc5)cc4)c4ccc(-c5nc6c7ccccc7c7ccccc7c6n5-c5ccc(C)cc5)cc4)cc3)nc3c4ccccc4c4ccccc4c32)cc1` ) = 435

Reported emission maximum ( `CC[C@H](C)COc1ccc(C2=C3C(C)=CC(C)=[N+]3[B-](F)(F)n3c(C)cc(C)c32)cc1` ) = 520

Reported emission maximum ( `CCOC(=O)CCCCCn1c2ccc([N+](=O)[O-])cc2c(=O)c2cc3c(cc21)c(=O)c1cc([N+](=O)[O-])ccc1n3CCCCCC(=O)OCC` ) = 553

Reported emission maximum ( `C(S/C=C/c1ccc(/C=C/SC=C2CCCC2)cc1)=C1CCCC1` ) = 424

----------
assay notes: solvent given as SMILES
run conditions: in CCOC(C)=O
assay endpoint: emission maximum (nm)
Please reply with the bare figure in nm and do not write the unit itself.

Reported emission maximum ( `CCN(CC)c1ccc2cc(/C=C(\C#N)c3nc4ccccc4s3)c(=O)oc2c1` ) = 576

Reported emission maximum ( `CC(=O)c1nc(-c2ccc(N(C)C)cc2)oc1C` ) = 370

Reported emission maximum ( `Clc1nc(Nc2ccccc2)nc(Nc2ccc3cc4ccccc4cc3c2)n1` ) = 433

Reported emission maximum ( `COc1ccc(-c2nc3c(c4c2-c2ccc(C#N)cc2CC4)-c2ccc(C#N)cc2CC3)cc1` ) = 423

Reported emission maximum ( `Cn1c(=O)c(/N=N/c2ccc(S(=O)(=O)O)c3ccccc23)c(O)c2ccccc21` ) = 555

Reported emission maximum ( `CCN(CC)c1ccc2cc(/C=C/C3=C4CC/C(=C\c5cc6ccc(N(CC)CC)cc6oc5=O)C4=[O+][B-](F)(F)O3)c(=O)oc2c1` ) = 693

Reported emission maximum ( `COc1cc2cc(-c3cc4cc(OC)c(OC)cc4oc3=O)oc2cc1OC` ) = 478

Reported emission maximum ( `CN(C)c1ccc(/C=C/c2nc3c4ccccc4c4ccccc4c3[nH]2)cc1` ) = 460

Reported emission maximum ( `CCCSC1=[N+]2C(=C(c3ccccc3)c3ccc(SCCC)n3[B-]2(F)F)C=C1SC#N` ) = 588

----------
assay notes: solvent given as SMILES
run conditions: in CS(C)=O
The label depends only on emission maximum: Condition met if it is at least 500 nm, Condition not met if it is smaller.

Is reported emission maximum greater than or equal to 500 nm here: `O=C1/C(=C\c2ccc3oc4ccccc4c3c2)S(=O)(=O)c2ccccc21`
Condition not met

Is reported emission maximum greater than or equal to 500 nm here: `C(=C\c1cnccn1)/c1ccc(N(c2ccccc2)c2ccccc2)cc1`
Condition met

Is reported emission maximum greater than or equal to 500 nm here: `Cc1cc(C)c(B(c2ccc(-c3nc4c5ccccc5c5ccccc5c4[nH]3)cc2)c2c(C)cc(C)cc2C)c(C)c1`
Condition not met

Is reported emission maximum greater than or equal to 500 nm here: `O=C1CCCc2c1[nH]c1cc3c(cc21)OCO3`
Condition not met

Is reported emission maximum greater than or equal to 500 nm here: `COc1ccc(-n2c3ccccc3c3cc(C=C(C#N)C#N)ccc32)cc1`
Condition met

Is reported emission maximum greater than or equal to 500 nm here: `COc1cc(OC)cc(C2=C3C(C)=C(I)C(/C=C/c4ccsc4)=[N+]3[B-](F)(F)n3c(/C=C/c4ccsc4)c(I)c(C)c32)c1`
Condition met

Is reported emission maximum greater than or equal to 500 nm here: `CC(=O)c1ccc(-c2nc3ccc(N(C)C)c(Cl)c3s2)cc1`
Condition met

Is reported emission maximum greater than or equal to 500 nm here: `COC(=O)[C@@H]1C(=O)Oc2ccccc2[C@H]1c1c[nH]c2ccccc12`
Condition not met

Is reported emission maximum greater than or equal to 500 nm here: `O=C1CC(=O)Nc2ccccc2N1`
Condition not met

Is reported emission maximum greater than or equal to 500 nm here: `CN1/C(=C/C=C(/C=C/c2sc3ccccc3[n+]2C)c2ccc(C(F)(F)F)cc2)Sc2ccccc21`
Condition met

Is reported emission maximum greater than or equal to 500 nm here: `CCOC(=O)c1[nH]c(C)c(/C=C/C2=[N+]3C(=C(c4cc(OC)cc(OC)c4)c4c(C)c(I)c(/C=C/c5c(C)[nH]c(C(=O)OCC)c5C)n4[B-]3(F)F)C(C)=C2I)c1C`
Condition met

Is reported emission maximum greater than or equal to 500 nm here: `c1ccc2c(-c3ccc(-c4nnc(-c5ccc(-c6nnc(-c7ccc(-c8cccc9ccccc89)s7)o6)cc5)o4)s3)cccc2c1`
Condition not met

Is reported emission maximum greater than or equal to 500 nm here: OCC1O[C@@H](Cc2cc(O)cc(/C=C/c3ccc(O)c(O)c3)c2)[C@H](O)[C@@H](O)[C@@H]1O (some centres undefined)
Condition not met

Is reported emission maximum greater than or equal to 500 nm here: `O=c1oc2ccccc2cc1-c1cc2ccccc2o1`
Condition not met

Is reported emission maximum greater than or equal to 500 nm here: `O=C(O)CCCOc1cccc(-c2c3nc(cc4ccc([nH]4)c(-c4cccc(OCCCC(=O)O)c4)c4nc(cc5ccc2[nH]5)C=C4)C=C3)c1`
Condition met

Is reported emission maximum greater than or equal to 500 nm here: `CN(C)c1ccc(C2=[N+]3C(=Nc4c(-c5ccc(O)cc5)cc(-c5ccc(N(C)C)cc5)n4[B-]3(F)F)C(c3ccc(O)cc3)=C2)cc1`
Condition met

Is reported emission maximum greater than or equal to 500 nm here: `CCOC(=O)/C(C#N)=C\c1cn(-c2ccccc2)nc1-c1ccccc1`
Condition not met
